Assignment: determine reported koff for the given binders.
Target: T1, cynomolgus antigen (cynomolgus)
T1 construct: also called cyno antigen; cynomolgus monkey C5a
Test: SPR, scFv captured via anti-c-myc/anti-His, 60 nM cynomolgus antigen as analyte, 1:1 fit
Please give a number only; it is taken to be in s⁻¹.

Fill in: koff of 10F5 (scFv, V domains shown, Combination mutant scFv) VH: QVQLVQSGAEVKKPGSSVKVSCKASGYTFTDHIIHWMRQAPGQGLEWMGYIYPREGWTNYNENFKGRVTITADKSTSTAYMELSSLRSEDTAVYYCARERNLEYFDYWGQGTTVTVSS VL: DIVLTQSPASLAVSPGQRATITCKASQSVDYEGDNYMNWYQQKPGQPPKLLIYATSNLDSGVPARFSGSGSGTDFTLTINPVEAEDTANYYCQQSLEDPHTFGGGTKVEIK is ___ 0.00202

// koff lookup, key: 5G11 (scFv, V domains shown, Combination mutant scFv) VH: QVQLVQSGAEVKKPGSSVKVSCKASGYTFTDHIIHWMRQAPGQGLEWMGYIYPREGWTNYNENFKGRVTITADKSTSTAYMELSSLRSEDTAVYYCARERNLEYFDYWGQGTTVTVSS VL: DIVLTQSPASLAVSPGQRATITCKASQSVDYEGFNYMNWYQQKPGQPPKLLIYAASNLDSGVPARFSGSGSGTDFTLTINPVEAEDTANYYCQQSLEDPHTFGGGTKVEIK 0.000279
